# experiment.description: chemical genetic growth profiling, strain panel (AID 1159580);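 note: tested at 20 µM; growth read once vehicle control cultures reached saturation at 30 °C; 1 = growth at the plate median or of vehicle wells; lower values mean less growth of the strain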
# conditions.used: S. cerevisiae deletion strains, growth OD, locus YKL068W
Hit rate of the full screen: of about 5,500 compounds, about 2,000 (36%) were called active. Roughly 18% stayed inconclusive and do not appear here. Cut-off read from the data, not from the text of the source: active = normalized growth mostly below about 0.91 (no sharp cut-off); inconclusive = no clear call, values can overlap the other calls; inactive = mostly above about 0.92. This is one part of the list.
Form entry, call: pick from active, inactive

compound	label.value
CC1=CC(=O)CC(C)(C)C1(O)/C=C/C(C)=C\C(=O)O (stereo not drawn)	inactive
CCN(CC)CCOC(=O)C(Cc1cccc2ccccc12)CC1CCCO1 (stereo not drawn)	inactive
c1cc2c(cc1[C@H]1OC[C@H]3[C@@H]1CO[C@H]3c1ccc3c(c1)OCO3)OCO2	active
CC(Cc1ccc(O)c(O)c1)(NN)C(=O)O (stereo not drawn)	inactive
CC[C@@H](C(=O)[C@@H](C)[C@@H](O)[C@H](C)[C@@H]1O[C@@H]([C@@H](CC)C(=O)O)CC[C@@H]1C)[C@H]1OC2(C=C[C@@H](O)[C@]3(CC[C@@](C)([C@H]4CC[C@](O)(CC)[C@H](C)O4)O3)O2)[C@H](C)C[C@@H]1C (stereo partly drawn)	inactive

Which outcome was assigned to `NCCCCN=C(N)N` in this test?
inactive

Given CC[C@@H](C(=O)O)[C@@H]1O[C@@H]([C@@H](C)[C@H](O)[C@H](C)C(=O)[C@H](CC)[C@H]2O[C@]3(C=C[C@@H](O)[C@]4(CC[C@@](C)(C5CC[C@](O)(CC)[C@H](C)O5)O4)O3)[C@H](C)C[C@@H]2C)[C@@H](C)C[C@H]1C (stereo partly drawn) , state the outcome it received in this test.
active

Can you look up the reported call for `CC1=C(/C=C/C(C)=C/C=C/C(C)=C\C(=O)O)C(C)(C)CCC1` for me?
inactive

---

# experiment.description: chemical genetic growth profiling, strain panel (AID 1159580);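 note: tested at 20 µM; growth read once vehicle control cultures reached saturation at 30 °C; 1 = growth at the plate median or of vehicle wells; lower values mean less growth of the strain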
# conditions.used: S. cerevisiae deletion strains, growth OD, locus YML032C, strain rad52, hits give low values
The campaign covered roughly 5,500 compounds. About 2,000 (36%) were called active. Roughly 18% stayed inconclusive and do not appear here. Some of the results follow.
endpoint.label: normalized growth
Please respond with just the number, no unit label.

Recorded results for 6 molecules are shown here.
molecule	measured.value
C/C=C/c1ccc(OC)cc1	0.99
COC(=O)[C@H]1[C@H]2C[C@@H]3c4[nH]c5cc(OC)ccc5c4CCN3C[C@H]2C[C@@H](OC(=O)c2cc(OC)c(OC)c(OC)c2)[C@@H]1OC	1.02
CC(=O)OC/C=C(C)/C=C/C=C(C)/C=C/C1=C(C)CCCC1(C)C	0.998
COc1c(C(=O)O)ccc2c1CCC(C)(C)O2	0.991
c1ccc2[nH]c(-c3cscn3)nc2c1	0.979
C[C@](N)(Cc1ccc(O)c(O)c1)C(=O)O	1.01

What does the record list as normalized growth for `COc1ccc(/C=C/c2cc(O)cc(O[C@@H]3O[C@H](CO)[C@@H](O)[C@H](O)[C@H]3O)c2)cc1O` ?
1.01

// query normalized growth value for entry Nc1nc2c(c(=O)[nH]1)N(C=O)C(CNc1ccc(C(=O)N[C@@H](CCC(=O)O)C(=O)O)cc1)CN2 (some centres undefined)
0.999

Please report the recorded normalized growth for OCC(S)CS (centres undefined) .
0.973

I'd like to know its normalized growth. The molecule in question is Nc1nc(N)c2nc(CNc3ccc(C(=O)NC(CCC(=O)O)C(=O)O)cc3)cnc2n1 (centres undefined)
1.01
